The reader will find reported EC50, cAMP values listed item by item below.
- assay-system: T1, human GIP receptor (human, UniProt P48546 22-466)
- T1 sequence (looked up): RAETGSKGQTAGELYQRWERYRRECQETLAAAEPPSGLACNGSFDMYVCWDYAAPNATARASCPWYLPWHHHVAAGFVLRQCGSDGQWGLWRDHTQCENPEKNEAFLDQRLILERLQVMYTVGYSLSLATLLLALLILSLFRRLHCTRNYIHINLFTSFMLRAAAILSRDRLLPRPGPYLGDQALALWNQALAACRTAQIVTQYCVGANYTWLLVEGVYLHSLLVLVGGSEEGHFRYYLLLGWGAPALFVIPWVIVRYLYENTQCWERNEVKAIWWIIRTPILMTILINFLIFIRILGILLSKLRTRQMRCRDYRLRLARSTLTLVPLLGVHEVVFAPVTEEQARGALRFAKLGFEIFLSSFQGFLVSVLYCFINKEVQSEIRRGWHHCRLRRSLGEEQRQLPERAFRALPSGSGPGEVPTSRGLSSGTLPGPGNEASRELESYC
- assay-remarks: cell-based or functional assay
Number only, in nM; omit the unit.

get_value(item= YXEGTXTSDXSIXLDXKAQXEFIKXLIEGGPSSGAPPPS (Aib2, αMeF(2F)6, 4Pal10, αMeL13, Orn16, Aib20, αMeY25, K17 and K24: K(AEEA3-(γ-Glu)-CO-(CH2)12-CO2H), C-terminal NH2) [Example 80] , readout=EC50, cAMP) returns 0.0245

Input YXEGTXTSDVSIXLDXKAQXEFIXXLIEGGKSSGAPPPS (Aib2, αMeF(2F)6, αMeL13, Orn16, Aib20, D-Glu24, αMeY25, K17 and K31: K(AEEA2-(γ-Glu)-CO-(CH2)12-CO2H), C-terminal NH2) [Example 90] . Output EC50, cAMP: 0.0436

binder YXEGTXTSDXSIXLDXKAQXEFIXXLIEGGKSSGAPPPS (Aib2, αMeF(2F)6, 4Pal10, αMeL13, Orn16, Aib20, D-Glu24, αMeY25, K17 and K31: K(AEEA-(γ-Glu)-CO-(CH2)14-CH3), C-terminal NH2) [Example 13] , EC50, cAMP observed: 0.00597

Next:
The binder listed as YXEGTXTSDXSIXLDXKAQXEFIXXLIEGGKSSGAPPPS (Aib2, αMeF(2F)6, 4Pal10, αMeL13, Orn16, Aib20, D-Glu24, αMeY25, K17 and K31: K(AEEA2-(γ-Glu)-CO-(CH2)10-CO2H), C-terminal NH2) [Example 6] shows EC50, cAMP equal to 0.0477

Lookup result for YXEGTXTSDKSIXLDXIAQXKXIXXLIEGGPSSGAPPPS (Aib2, αMeF(2F)6, αMeL13, Orn16, Aib20, αMeF22, D-Glu24, αMeY25, K10 and K21: K(AEEA2-(γ-Glu)-CO-(CH2)12-CO2H), C-terminal NH2) [Example 109] ; measured EC50, cAMP: 0.0236

Quick note, EC50, cAMP for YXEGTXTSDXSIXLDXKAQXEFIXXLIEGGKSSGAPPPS (Aib2, αMeF(2F)6, Bip10, αMeL13, Orn16, Aib20, D-Glu24, αMeY25, K17 and K31: K(AEEA2-(γ-Glu)-CO-(CH2)12-CO2H), C-terminal NH2) [Example 55] landed at 0.0207
